Recorded values, source patent US20110086770A1.

Biological target: T1, recombinant human IL-23R/Fc chimera (R&D Systems) (human, UniProt Q5VWK5 24-353)
T1 construct: bought; also called human IL-23R/Fc fusion protein; rhIL23RFc
T1 sequence (looked up): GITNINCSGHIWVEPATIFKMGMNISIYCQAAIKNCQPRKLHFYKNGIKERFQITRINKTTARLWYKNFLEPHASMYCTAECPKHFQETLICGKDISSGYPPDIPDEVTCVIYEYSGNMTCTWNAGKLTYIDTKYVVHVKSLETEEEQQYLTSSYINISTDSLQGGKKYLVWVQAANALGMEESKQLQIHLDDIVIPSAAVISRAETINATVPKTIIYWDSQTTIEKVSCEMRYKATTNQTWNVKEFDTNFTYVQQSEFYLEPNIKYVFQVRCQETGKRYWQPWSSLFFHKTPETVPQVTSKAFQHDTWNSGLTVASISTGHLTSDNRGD
Test: SPR (Biacore), captured IL-23R/Fc, ATRIMER
I'd be grateful if you could share measured kon for these entries.
Output spec: scalar in M⁻¹ s⁻¹, unitless text.

kon reading for 105-20-2F12 ATRIMER (designed binder, not shown: C-terminal tag: His/Myc (pANA4) or HA-StrepII (pANA10)) EPPTQKPKKIVNAKKDVVNTKMFEELKSRLDTLAQEVALLKEQQALQTVCLKGTKVHMKCFLAFTQTKTFHEASEDCISRGGTLSTPQTGSENDALYEYLRQSVGNEAEIWLGLNGSKLTDTWVDMTGARIAYKNWETEITAQPDGGFGYFGENCAVLSGAANGKWFDKRCRDQLPYICQFGIV : 254000

kon reading for 105-20-2A3 ATRIMER (designed binder, not shown: C-terminal tag: Myc/His6 (pANA4) or HA-StrepII (pANA10); A Ser left at the ompA junction may also sit at the N-terminus) EPPTQKPKKIVNAKKDVVNTKMFEELKSRLDTLAQEVALLKEQQALQTVCLKGTKVHMKCFLAFTQTKTFHEASEDCISRGGTLSTPQTGSENDALYEYLRQSVGNEAEIWLGLNGSPITNTWVDMTGARIAYKNWETEITAQPDGGFGYFGENCAVLSGAANGKWFDKRCRDQLPYICQFGIV : 412000

kon reading for 105-08-1A3 ATRIMER (designed binder, not shown: C-terminal tag: Myc/His6 (pANA4) or HA-StrepII (pANA10); A Ser left at the ompA junction may also sit at the N-terminus) EPPTQKPKKIVNAKKDVVNTKMFEELKSRLDTLAQEVALLKEQQALQTVCLKGTKVHMKCFLAFTQTKTFHEASEDCISRGGTLSTPQTGSENDALYEYLRQSVGNEAEIWLGLNGSPRTDTWVDMTGARIAYKNWETEITAQPDGGWGVFGENCAVLSGAANGKWFDKRCRDQLPYICQFGIV : 735000
